- measured.on: STK11 (human) (UniProt Q15831)
- Sequence (Q15831 whole entry, looked up): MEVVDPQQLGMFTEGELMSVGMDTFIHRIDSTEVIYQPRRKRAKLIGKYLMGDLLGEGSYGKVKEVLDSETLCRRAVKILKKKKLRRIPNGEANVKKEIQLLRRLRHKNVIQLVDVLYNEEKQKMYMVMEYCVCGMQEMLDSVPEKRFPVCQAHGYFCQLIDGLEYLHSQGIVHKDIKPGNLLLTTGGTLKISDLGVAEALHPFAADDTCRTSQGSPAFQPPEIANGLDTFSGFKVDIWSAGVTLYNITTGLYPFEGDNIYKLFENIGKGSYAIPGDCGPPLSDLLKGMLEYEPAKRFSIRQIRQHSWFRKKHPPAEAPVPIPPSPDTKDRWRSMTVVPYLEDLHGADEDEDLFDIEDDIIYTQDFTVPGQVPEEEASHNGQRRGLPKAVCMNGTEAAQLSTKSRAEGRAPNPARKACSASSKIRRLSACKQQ
- assay.summary: KINOMEscan competition binding
- stated.conditions: compound 10.0 µM
This section presents molecules with their documented kinase still bound, per cent of control values.
assay.readout: kinase still bound, per cent of control

[[record]]
smiles_repr = "C=CC(=O)Nc1ccc(CN(C(=O)Nc2c(Cl)c(OC)cc(OC)c2Cl)c2cc(Nc3ccc(N4CCN(C)CC4)cc3)ncn2)cc1"
meas_value = "100%"

[[record]]
smiles_repr = "C=CC(=O)Nc1cc(-n2c(=O)ccc3cnc4ccc(-c5cn[nH]c5)cc4c32)ccc1C"
meas_value = "100%"

[[record]]
smiles_repr = "N#CCNC(=O)c1ccc(-c2ccnc(Nc3ccc(N4CCOCC4)cc3)n2)cc1"
meas_value = "61%"


---

- measured.on: CDK13 (human) (UniProt Q14004)
- Sequence (Q14004 whole entry, looked up): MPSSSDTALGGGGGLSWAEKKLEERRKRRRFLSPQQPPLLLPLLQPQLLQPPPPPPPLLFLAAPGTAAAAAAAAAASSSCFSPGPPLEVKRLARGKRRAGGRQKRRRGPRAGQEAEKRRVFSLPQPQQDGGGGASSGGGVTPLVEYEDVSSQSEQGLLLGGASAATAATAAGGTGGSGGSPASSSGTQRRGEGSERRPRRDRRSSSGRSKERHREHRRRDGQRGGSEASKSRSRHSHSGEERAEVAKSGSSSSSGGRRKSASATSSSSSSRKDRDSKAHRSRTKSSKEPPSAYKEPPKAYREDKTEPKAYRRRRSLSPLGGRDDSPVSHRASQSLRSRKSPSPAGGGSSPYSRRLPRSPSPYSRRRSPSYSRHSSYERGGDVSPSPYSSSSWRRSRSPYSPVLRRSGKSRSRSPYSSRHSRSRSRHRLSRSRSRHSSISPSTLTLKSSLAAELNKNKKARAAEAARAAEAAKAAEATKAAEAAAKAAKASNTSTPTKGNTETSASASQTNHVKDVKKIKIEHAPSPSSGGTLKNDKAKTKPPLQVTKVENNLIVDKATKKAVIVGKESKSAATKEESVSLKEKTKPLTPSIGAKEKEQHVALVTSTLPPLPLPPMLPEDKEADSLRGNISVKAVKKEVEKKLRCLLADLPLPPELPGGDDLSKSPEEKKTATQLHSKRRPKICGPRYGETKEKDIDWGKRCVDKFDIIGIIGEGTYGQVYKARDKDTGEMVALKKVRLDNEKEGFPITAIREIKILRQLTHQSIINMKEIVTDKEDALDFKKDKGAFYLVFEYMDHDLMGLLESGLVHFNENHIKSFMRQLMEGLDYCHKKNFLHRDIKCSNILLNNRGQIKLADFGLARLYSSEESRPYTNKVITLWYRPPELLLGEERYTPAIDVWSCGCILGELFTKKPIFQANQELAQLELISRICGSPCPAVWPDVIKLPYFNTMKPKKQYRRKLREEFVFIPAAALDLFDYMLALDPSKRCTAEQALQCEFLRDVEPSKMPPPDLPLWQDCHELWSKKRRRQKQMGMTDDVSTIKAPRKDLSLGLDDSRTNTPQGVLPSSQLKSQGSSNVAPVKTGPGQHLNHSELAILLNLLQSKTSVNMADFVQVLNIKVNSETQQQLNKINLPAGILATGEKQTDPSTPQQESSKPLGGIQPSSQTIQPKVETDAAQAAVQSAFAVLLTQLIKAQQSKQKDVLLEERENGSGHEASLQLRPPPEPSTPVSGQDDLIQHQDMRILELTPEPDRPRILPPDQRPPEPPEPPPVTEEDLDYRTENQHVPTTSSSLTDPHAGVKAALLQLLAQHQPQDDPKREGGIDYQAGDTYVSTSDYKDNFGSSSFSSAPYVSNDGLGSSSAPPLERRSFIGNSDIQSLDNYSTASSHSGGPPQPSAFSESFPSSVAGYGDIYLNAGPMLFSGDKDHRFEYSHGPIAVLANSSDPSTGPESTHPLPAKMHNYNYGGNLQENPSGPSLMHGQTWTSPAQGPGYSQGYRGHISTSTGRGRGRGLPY
- assay.summary: KINOMEscan competition binding
- stated.conditions: compound 10.0 µM
assay.readout: kinase still bound, per cent of control (%)

[[record]]
smiles_repr = "C=CC(=O)Nc1cc(-n2c(=O)ccc3cnc4ccc(-c5cn[nH]c5)cc4c32)ccc1C"
meas_value = 100

[[record]]
smiles_repr = "COCC(=O)NC/C=C/c1ccc2ncnc(Nc3ccc(Oc4ccc(C)nc4)c(C)c3)c2c1"
meas_value = 100

[[record]]
smiles_repr = "CN(C)C/C=C/C(=O)Nc1ccc(C(=O)Nc2cccc(Nc3nccc(-c4cccnc4)n3)c2)cc1"
meas_value = 86

[[record]]
smiles_repr = "O=C1NC(=O)/C(=C/c2ccc3nccc(-c4ccncc4)c3c2)S1"
meas_value = 95

[[record]]
smiles_repr = "O=c1cc(N2CCOCC2)oc2c(-c3cccc4c3sc3ccccc34)cccc12"
meas_value = 100

[[record]]
smiles_repr = "COc1cc2ncn(-c3cc(OCc4ccccc4C(F)(F)F)c(C(N)=O)s3)c2cc1OC"
meas_value = 76


---

This section presents compounds with their documented kinase still bound, per cent of control values.
- measured.on: RIOK3 (human) (UniProt O14730)
- Sequence (O14730 whole entry, looked up): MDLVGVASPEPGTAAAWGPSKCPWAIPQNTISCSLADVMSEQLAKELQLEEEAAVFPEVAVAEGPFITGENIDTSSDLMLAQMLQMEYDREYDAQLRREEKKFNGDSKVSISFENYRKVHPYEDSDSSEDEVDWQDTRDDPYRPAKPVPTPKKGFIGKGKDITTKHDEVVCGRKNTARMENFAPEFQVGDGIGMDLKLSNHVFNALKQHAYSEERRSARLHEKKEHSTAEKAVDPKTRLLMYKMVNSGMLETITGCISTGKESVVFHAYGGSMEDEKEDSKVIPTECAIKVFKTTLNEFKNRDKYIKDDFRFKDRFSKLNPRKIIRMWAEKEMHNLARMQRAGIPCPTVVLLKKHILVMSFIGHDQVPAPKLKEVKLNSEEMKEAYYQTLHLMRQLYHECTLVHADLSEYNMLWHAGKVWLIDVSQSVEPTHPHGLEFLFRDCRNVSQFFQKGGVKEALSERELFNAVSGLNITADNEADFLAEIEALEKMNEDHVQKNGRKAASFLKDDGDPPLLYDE
- assay.summary: KINOMEscan competition binding
- stated.conditions: compound 10.0 µM
assay.readout: kinase still bound, per cent of control (%)

[[record]]
smiles_repr = "COc1cc(C(=O)N2CCC(N3CCN(C)CC3)CC2)ccc1Nc1ncc2c(n1)N(C)c1ccccc1C(=O)N2C"
assay_readout = "kinase still bound, per cent of control"
meas_value = 85

[[record]]
smiles_repr = "CNC(=O)c1cc(Oc2ccc(NC(=O)Nc3ccc(Cl)c(C(F)(F)F)c3)cc2)ccn1"
assay_readout = "kinase still bound, per cent of control"
meas_value = 100

[[record]]
smiles_repr = "COc1ccc(N(C(=O)Oc2c(C)cccc2C)c2ccnc(Nc3ccc(N4CCN(C)CC4)cc3)n2)c(OC)c1"
assay_readout = "kinase still bound, per cent of control"
meas_value = 5.1

[[record]]
smiles_repr = "COCC(=O)NC/C=C/c1ccc2ncnc(Nc3ccc(Oc4ccc(C)nc4)c(C)c3)c2c1"
assay_readout = "kinase still bound, per cent of control"
meas_value = 100

[[record]]
smiles_repr = "COc1cc2ncn(-c3cc(OCc4ccccc4C(F)(F)F)c(C(N)=O)s3)c2cc1OC"
assay_readout = "kinase still bound, per cent of control"
meas_value = 4.2

[[record]]
smiles_repr = "C=CC(=O)Nc1ccc(CN(C(=O)Nc2c(Cl)c(OC)cc(OC)c2Cl)c2cc(Nc3ccc(N4CCN(C)CC4)cc3)ncn2)cc1"
assay_readout = "kinase still bound, per cent of control"
meas_value = 100

[[record]]
smiles_repr = "C=CC(=O)Nc1cc(-n2c(=O)ccc3cnc4ccc(-c5cn[nH]c5)cc4c32)ccc1C"
assay_readout = "kinase still bound, per cent of control"
meas_value = 31

[[record]]
smiles_repr = "N#CCNC(=O)c1ccc(-c2ccnc(Nc3ccc(N4CCOCC4)cc3)n2)cc1"
assay_readout = "kinase still bound, per cent of control"
meas_value = 0

[[record]]
smiles_repr = "COc1cc(N2CCN(C)CC2)ccc1Nc1ncc2c(n1)N(C)c1ccccc1C(=O)N2C"
assay_readout = "kinase still bound, per cent of control"
meas_value = 100

[[record]]
smiles_repr = "CCN1CCN(C(=O)Cc2ccc(Nc3ncc(F)c(Nc4ccc(C(=O)Nc5ccccc5Cl)cc4)n3)cc2)CC1"
assay_readout = "kinase still bound, per cent of control"
meas_value = 0.2

[[record]]
smiles_repr = "NC(=O)Nc1cc(-c2cccc(F)c2)sc1C(=O)N[C@@H]1CCCNC1"
assay_readout = "kinase still bound, per cent of control"
meas_value = 0.4

[[record]]
smiles_repr = "O=C(Nc1cccc(Nc2ncc(Br)c(NCCc3cnc[nH]3)n2)c1)N1CCCC1"
assay_readout = "kinase still bound, per cent of control"
meas_value = 0.5

[[record]]
smiles_repr = "CN(C)C/C=C/C(=O)Nc1ccc(C(=O)Nc2cccc(Nc3nccc(-c4cccnc4)n3)c2)cc1"
assay_readout = "kinase still bound, per cent of control"
meas_value = 13

